Biological target: Cytochrome P450 2C9 (Homo sapiens) (UniProt P11712)
Sequence (P11712 whole entry, looked up): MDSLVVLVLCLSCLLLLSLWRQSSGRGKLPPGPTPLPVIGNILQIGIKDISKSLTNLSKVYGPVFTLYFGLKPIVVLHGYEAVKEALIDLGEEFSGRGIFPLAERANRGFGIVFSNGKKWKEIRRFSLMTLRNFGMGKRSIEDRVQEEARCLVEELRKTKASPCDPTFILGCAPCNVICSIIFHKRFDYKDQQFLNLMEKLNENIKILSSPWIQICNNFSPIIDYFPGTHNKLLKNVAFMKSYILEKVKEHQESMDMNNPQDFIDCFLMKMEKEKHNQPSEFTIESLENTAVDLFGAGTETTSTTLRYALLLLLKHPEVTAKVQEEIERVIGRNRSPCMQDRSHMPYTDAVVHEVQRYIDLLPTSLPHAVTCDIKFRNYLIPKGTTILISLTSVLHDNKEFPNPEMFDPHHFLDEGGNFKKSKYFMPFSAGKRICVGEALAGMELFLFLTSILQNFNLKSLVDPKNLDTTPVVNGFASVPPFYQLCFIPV
Assay: Cytochrome panel assay with activity outcomes
Settings: recombinant CYP, pro-luciferin dealkylation, luminescence, p450-cyp2c9; series mostly up to 57.1 µM
Method: The P450 gene superfamily is involved in the metabolism and clearance of xenobiotics. This assay used various human CYP P450 isozymes to measure the dealkylation of various pro-luciferin substrates to luciferin. The luciferin is then measured by luminescence after the addition of a luciferase detection reagent. […] Inhibitors and some substrates limit the production of luciferin, and decrease measured luminescence. […] 8, Detection, 1 sec, ViewLux luminescent read […]
About 4,000 (25%) of roughly 16,000 compounds were called active. Another 26% or so got no clear call; they are omitted. The call rests on the fitted dose curve; in most records, active means well fitted curve in the direction sought with a large enough effect; inconclusive means small, poorly fitted or top-dose-only effect, or effect the other way; inactive means no such curve, though single readings can be large or run the other way. Only a sample is shown.
Labels: yes (1) (active), no (0) (inactive)

[
  {
    "compound": "COc1ccc(NC(=O)CSc2nnc(C3CC3)n2-c2ccccc2)cc1",
    "targetOrSystem": "Cytochrome P450 2C9 (Homo sapiens) (UniProt P11712)",
    "answerLabel": "yes (1)"
  },
  {
    "compound": "CCOc1ccc(-n2ccnc2SCC(=O)Nc2nnc(CC)s2)cc1",
    "targetOrSystem": "Cytochrome P450 2C9 (Homo sapiens) (UniProt P11712)",
    "answerLabel": "yes (1)"
  },
  {
    "compound": "COc1ccc(-n2ccnc2SCC(=O)Nc2ccc(OC)cc2OC)cc1",
    "targetOrSystem": "Cytochrome P450 2C9 (Homo sapiens) (UniProt P11712)",
    "answerLabel": "yes (1)"
  },
  {
    "compound": "COCCCNC(=O)c1ccc2c(=O)n(CC3CCCO3)c(=S)[nH]c2c1 (stereo unspecified)",
    "targetOrSystem": "Cytochrome P450 2C9 (Homo sapiens) (UniProt P11712)",
    "answerLabel": "no (0)"
  },
  {
    "compound": "O=C(c1cnccn1)N1CCC2(CC1)CN(Cc1cc(C(F)(F)F)cc(C(F)(F)F)c1)C2",
    "targetOrSystem": "Cytochrome P450 2C9 (Homo sapiens) (UniProt P11712)",
    "answerLabel": "no (0)"
  },
  {
    "compound": "O=C(NCc1ccccc1Cl)c1ccc2c(=O)n(CCCN3CCCC3=O)c(=S)[nH]c2c1",
    "targetOrSystem": "Cytochrome P450 2C9 (Homo sapiens) (UniProt P11712)",
    "answerLabel": "yes (1)"
  },
  {
    "compound": "Cn1ccnc1SCC(=O)Nc1sccc1C#N",
    "targetOrSystem": "Cytochrome P450 2C9 (Homo sapiens) (UniProt P11712)",
    "answerLabel": "yes (1)"
  },
  {
    "compound": "O=C(Nc1ccccc1)N1CCC2(CC1)CCN(C(=O)c1cnccn1)CC2",
    "targetOrSystem": "Cytochrome P450 2C9 (Homo sapiens) (UniProt P11712)",
    "answerLabel": "no (0)"
  },
  {
    "compound": "COc1cc(/C=C\\c2ccc(OC)cc2OC)cc(OC)c1",
    "targetOrSystem": "Cytochrome P450 2C9 (Homo sapiens) (UniProt P11712)",
    "answerLabel": "no (0)"
  },
  {
    "compound": "CCc1nnc(NC(=O)CCC(=O)N2CCN(c3ccccn3)CC2)s1",
    "targetOrSystem": "Cytochrome P450 2C9 (Homo sapiens) (UniProt P11712)",
    "answerLabel": "no (0)"
  },
  {
    "compound": "COCCn1c(=S)[nH]c2cc(C(=O)NC(C)C)ccc2c1=O",
    "targetOrSystem": "Cytochrome P450 2C9 (Homo sapiens) (UniProt P11712)",
    "answerLabel": "no (0)"
  }
]

###

target: Cytochrome P450 2C9 (Homo sapiens); assay: Cytochrome panel assay with activity outcomes; conditions: recombinant CYP, pro-luciferin dealkylation, luminescence, p450-cyp2c9; series mostly up to 57.1 µM
Out of some 16,000 compounds screened, about 4,000 (25%) were called active. Not shown: some 26% with an inconclusive outcome. Calls come from the whole dose curve; as a rule, active = well fitted curve in the direction sought with a large enough effect; inconclusive = small, poorly fitted or top-dose-only effect, or effect the other way; inactive = no such curve, though single readings can be large or run the other way. A selection follows.
Labels: active, inactive

[
  {
    "compound": "Cc1c(-c2ccccc2)oc2c(C(=O)OCCN3CCCCC3)cccc2c1=O",
    "answerLabel": "inactive"
  },
  {
    "compound": "Cn1sc(NC(=O)c2ccccc2)nc1=O",
    "answerLabel": "active"
  },
  {
    "compound": "COc1cccc(OC)c1OCCCCN1CCCC1",
    "answerLabel": "inactive"
  },
  {
    "compound": "CCOC(=O)c1ccc(NC(=O)C2(c3ccc(OC)cc3)CCOCC2)cc1",
    "answerLabel": "active"
  },
  {
    "compound": "COc1ccc(C2(C(=O)N3CCOCC3)CCCC2)cc1",
    "answerLabel": "inactive"
  },
  {
    "compound": "CC(=O)c1ccc(NC(=O)C2(c3ccccc3)CCOCC2)cc1",
    "answerLabel": "active"
  },
  {
    "compound": "C=CCNc1nc(-c2ccc(Cl)cc2)cs1",
    "answerLabel": "active"
  },
  {
    "compound": "NC(=O)N[C@H]1NC(=O)NC1=O",
    "answerLabel": "inactive"
  },
  {
    "compound": "CCCCCC/C(C)=C1/SC(=S)NC1=O",
    "answerLabel": "active"
  },
  {
    "compound": "CN(C)CCOC(=O)C1(c2ccccc2)CCOCC1",
    "answerLabel": "inactive"
  },
  {
    "compound": "Cc1ccc(C2=NN(S(C)(=O)=O)C(c3cccs3)C2)cc1 (configuration not stated)",
    "answerLabel": "active"
  },
  {
    "compound": "CCOc1cc(/C=C2/SC(=O)N(CC(=O)N3CCc4ccccc4C3)C2=O)ccc1OCC(=O)O",
    "answerLabel": "active"
  }
]

###

molecular target: Cytochrome P450 2C9 (Homo sapiens) (UniProt P11712); assay: Cytochrome panel assay with activity outcomes; conditions: recombinant CYP, pro-luciferin dealkylation, luminescence, p450-cyp2c9; series mostly up to 57.1 µM
The campaign covered roughly 16,000 compounds. About 4,000 (25%) were called active. About 26% were inconclusive and are not listed. Calls come from the whole dose curve; as a rule, active = well fitted curve in the direction sought with a large enough effect; inconclusive = small, poorly fitted or top-dose-only effect, or effect the other way; inactive = no such curve, though single readings can be large or run the other way. The list is a sample of the results.
Classes used: active, inactive

[
  {
    "compound": "CCOc1ccc(C(=O)CCC(=O)O)cc1",
    "answerLabel": "inactive"
  },
  {
    "compound": "O=C1C2ON(c3ccccc3)C(c3ccncc3)C2C(=O)N1c1ccccc1 (stereo unspecified)",
    "answerLabel": "active"
  },
  {
    "compound": "CCCCOc1ccc(C(=O)CCN2CCCCC2)cc1",
    "answerLabel": "active"
  },
  {
    "compound": "Cc1noc(C)c1C(=O)N1CCC2(CCCN(C(=O)Nc3cccc(F)c3)C2)CC1",
    "answerLabel": "inactive"
  },
  {
    "compound": "CCCS(=O)(=O)N1CCCC(C(=O)NCCCN2CCN(c3ccc(F)cc3)CC2)C1 (stereo unspecified)",
    "answerLabel": "inactive"
  },
  {
    "compound": "CSc1nc(NC2CCCC2)c([N+](=O)[O-])c(NC2CCCC2)n1",
    "answerLabel": "active"
  },
  {
    "compound": "CCOc1cc2[nH]c(=O)n(CCCC(=O)NCc3ccc(OC)cc3)c(=O)c2cc1OCC",
    "answerLabel": "active"
  },
  {
    "compound": "COC(=O)N1CCC2(CCN(Cc3nccs3)CC2)CC1",
    "answerLabel": "inactive"
  },
  {
    "compound": "CC1(C)OC(=O)C(=CNc2cccc(O)c2)C(=O)O1",
    "answerLabel": "inactive"
  },
  {
    "compound": "CCC(=O)c1ccc(OCC(O)CN2CCCCC2)cc1 (stereo unspecified)",
    "answerLabel": "inactive"
  },
  {
    "compound": "O=S(=O)(NCc1cc(-c2ccccc2)no1)c1ccc(Cl)cc1",
    "answerLabel": "inactive"
  }
]

###

target: Cytochrome P450 2C9 (Homo sapiens) (UniProt P11712); experiment: Cytochrome panel assay with activity outcomes; details: recombinant CYP, pro-luciferin dealkylation, luminescence, p450-cyp2c9; series mostly up to 57.1 µM
Among all 16,000 compounds or so, about 4,000 (25%) were called active. Not shown: some 26% with an inconclusive outcome. Calls follow the shape of the dose curve; as a rule, active = well fitted curve in the direction sought with a large enough effect; inconclusive = small, poorly fitted or top-dose-only effect, or effect the other way; inactive = no such curve, though single readings can be large or run the other way. Not all results are given here.
Classes used: label 1 = active, label 0 = inactive

[
  {
    "molecule": "COc1ccc(C2C(C#N)=C(N)N(Nc3ccccc3)C3=C2C(=O)CC(C)(C)C3)cc1C (configuration not stated)",
    "answerLabel": "label 1"
  },
  {
    "molecule": "COc1ccc(CCC(C)NC2C3CC4CC(C3)CC2C4)cc1 (configuration not stated)",
    "answerLabel": "label 0"
  },
  {
    "molecule": "CCOC(=O)c1ccccc1NC(=O)CSc1cccc[n+]1[O-]",
    "answerLabel": "label 0"
  },
  {
    "molecule": "CC1CCN(S(=O)(=O)c2ccc3c(c2)C(=NO)c2cc(S(=O)(=O)N4CCC(C)CC4)ccc2-3)CC1",
    "answerLabel": "label 1"
  },
  {
    "molecule": "Cc1ccc(NC(=O)CCC(=O)NNS(=O)(=O)c2ccccc2)c(C)c1",
    "answerLabel": "label 0"
  },
  {
    "molecule": "O=C(Nc1nc2ccccc2n1CCN1CCCCC1)C1CCCCC1",
    "answerLabel": "label 0"
  },
  {
    "molecule": "CCOC(=O)N1CCN(C(=O)c2ccc3c(=O)n(-c4ccc(OC)cc4)c(=S)[nH]c3c2)CC1",
    "answerLabel": "label 0"
  },
  {
    "molecule": "Cc1cc(NC(=O)C2CCCC2)n(-c2nc3ccccc3[nH]2)n1",
    "answerLabel": "label 1"
  },
  {
    "molecule": "CCn1c(SCC(=O)Nc2ccccc2C(=O)OC)nnc1-c1ccc(N)cc1",
    "answerLabel": "label 1"
  },
  {
    "molecule": "N#Cc1cccc(NC(=O)N2CCC3(CC2)CCN(C(=O)c2cccc(F)c2)CC3)c1",
    "answerLabel": "label 0"
  },
  {
    "molecule": "O=C(Cc1cccs1)N1CCC(c2nc3c(nnn3Cc3ccccc3Cl)c(=O)[nH]2)CC1",
    "answerLabel": "label 1"
  },
  {
    "molecule": "CCc1cccc2c(C=C(C#N)C#N)cn(CC(=O)N3CCCCC3)c12",
    "answerLabel": "label 0"
  },
  {
    "molecule": "COc1cccc(C2=NOC(C(=O)NCc3ccccn3)C2)c1 (configuration not stated)",
    "answerLabel": "label 0"
  },
  {
    "molecule": "Cn1nccc1C(=O)Nc1ccc(Cl)cc1",
    "answerLabel": "label 0"
  },
  {
    "molecule": "Cc1cc(Br)ccc1NC(=O)CCSc1ccccc1",
    "answerLabel": "label 1"
  },
  {
    "molecule": "Cc1noc(C)c1C(=O)N1CCC[C@@]2(CCN(Cc3ccccc3)C2)C1",
    "answerLabel": "label 0"
  },
  {
    "molecule": "Cc1cc(CSc2ccccc2)ccc1NC(=O)COc1ccccc1",
    "answerLabel": "label 0"
  },
  {
    "molecule": "O=C(N/N=C/c1ccc(Cl)cc1Cl)c1cccc(F)c1",
    "answerLabel": "label 1"
  },
  {
    "molecule": "CCC(=O)OCc1c(C(F)(F)F)nn(C)c1Sc1ccc(F)cc1",
    "answerLabel": "label 1"
  },
  {
    "molecule": "CC1CCN(CC[C@H]2CCCN2S(=O)(=O)c2cccc(O)c2)CC1",
    "answerLabel": "label 0"
  },
  {
    "molecule": "COc1cc(N[C@@H](C)CCCN)c2ncccc2c1",
    "answerLabel": "label 0"
  },
  {
    "molecule": "CCn1c(SCC(=O)N2CCOCC2)nc2oc3c(Cl)cc(Cl)cc3c(=O)c2c1=O",
    "answerLabel": "label 1"
  }
]
